Target: human NaV1.8 (Homo sapiens, UniProt Q9Y5Y9)
Sequence (Q9Y5Y9 whole entry): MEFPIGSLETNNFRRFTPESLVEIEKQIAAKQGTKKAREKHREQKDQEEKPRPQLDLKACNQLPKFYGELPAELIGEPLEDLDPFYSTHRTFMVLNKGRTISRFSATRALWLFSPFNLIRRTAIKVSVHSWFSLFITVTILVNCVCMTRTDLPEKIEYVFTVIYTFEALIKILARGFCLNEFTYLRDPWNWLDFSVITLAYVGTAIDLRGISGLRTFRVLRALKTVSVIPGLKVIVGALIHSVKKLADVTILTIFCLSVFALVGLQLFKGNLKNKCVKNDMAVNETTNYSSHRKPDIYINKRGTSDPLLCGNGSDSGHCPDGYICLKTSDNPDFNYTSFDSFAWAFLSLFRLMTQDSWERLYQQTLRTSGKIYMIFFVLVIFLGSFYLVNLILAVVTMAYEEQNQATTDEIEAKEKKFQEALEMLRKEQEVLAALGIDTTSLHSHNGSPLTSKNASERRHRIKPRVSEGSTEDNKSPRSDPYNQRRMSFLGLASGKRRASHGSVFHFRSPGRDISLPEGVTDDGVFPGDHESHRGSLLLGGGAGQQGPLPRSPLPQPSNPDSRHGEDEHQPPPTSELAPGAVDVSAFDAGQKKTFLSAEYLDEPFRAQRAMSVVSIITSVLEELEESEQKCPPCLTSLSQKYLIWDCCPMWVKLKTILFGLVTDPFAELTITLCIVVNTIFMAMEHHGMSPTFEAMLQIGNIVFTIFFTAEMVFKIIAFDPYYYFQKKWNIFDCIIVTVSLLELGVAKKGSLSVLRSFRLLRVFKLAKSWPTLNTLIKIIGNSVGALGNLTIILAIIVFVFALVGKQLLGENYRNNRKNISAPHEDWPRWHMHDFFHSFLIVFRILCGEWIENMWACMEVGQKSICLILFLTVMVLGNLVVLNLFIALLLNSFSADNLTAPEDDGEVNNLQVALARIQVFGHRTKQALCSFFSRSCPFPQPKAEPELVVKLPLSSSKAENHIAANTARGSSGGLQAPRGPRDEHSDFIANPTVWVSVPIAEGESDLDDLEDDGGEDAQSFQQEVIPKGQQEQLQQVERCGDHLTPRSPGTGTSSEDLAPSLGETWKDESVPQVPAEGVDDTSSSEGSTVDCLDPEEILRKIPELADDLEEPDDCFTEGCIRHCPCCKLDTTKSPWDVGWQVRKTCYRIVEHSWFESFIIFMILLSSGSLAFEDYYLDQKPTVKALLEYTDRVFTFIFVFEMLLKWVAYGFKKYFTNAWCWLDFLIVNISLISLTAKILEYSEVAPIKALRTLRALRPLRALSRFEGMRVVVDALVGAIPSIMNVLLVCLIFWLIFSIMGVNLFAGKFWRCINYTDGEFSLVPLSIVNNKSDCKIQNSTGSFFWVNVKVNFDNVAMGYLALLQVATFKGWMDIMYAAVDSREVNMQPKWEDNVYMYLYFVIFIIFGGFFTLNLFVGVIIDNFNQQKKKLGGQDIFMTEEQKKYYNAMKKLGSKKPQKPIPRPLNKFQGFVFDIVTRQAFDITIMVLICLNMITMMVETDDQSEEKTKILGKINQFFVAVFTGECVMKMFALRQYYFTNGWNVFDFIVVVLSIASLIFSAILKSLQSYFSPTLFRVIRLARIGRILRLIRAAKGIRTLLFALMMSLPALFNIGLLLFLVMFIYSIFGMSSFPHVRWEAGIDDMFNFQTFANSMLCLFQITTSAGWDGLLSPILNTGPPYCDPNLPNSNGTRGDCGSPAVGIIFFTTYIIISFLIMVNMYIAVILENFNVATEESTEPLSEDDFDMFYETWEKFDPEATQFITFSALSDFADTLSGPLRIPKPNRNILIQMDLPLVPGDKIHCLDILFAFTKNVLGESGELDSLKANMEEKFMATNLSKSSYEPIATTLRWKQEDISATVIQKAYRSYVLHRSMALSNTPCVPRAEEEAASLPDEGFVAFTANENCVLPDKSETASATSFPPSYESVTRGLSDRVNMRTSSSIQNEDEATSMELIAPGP
Assay: Nav1.8 Qube® Assay (automated 384-well patch-clamp, inhibition of sodium current)
Details: human NaV1.8 channels stably expressed in HEK 293 cells, room temperature
measure: IC50 (nM)

compound	subject_of_test	endpoint_result
O=C1CN(C(=O)NC(c2ccc(Cl)c(C(F)(F)F)n2)C2CCC(C(F)(F)F)CC2)CCN1 (single isomer, unassigned) [Example 45B]	human NaV1.8 (Homo sapiens, UniProt Q9Y5Y9)	5.27
C[C@@H]1C(=O)NCCN1C(=O)NC(c1ccc(F)c(Cl)c1)C1CC(OC(F)F)C1 (single isomer, unassigned) [Example 38B]	human NaV1.8 (Homo sapiens, UniProt Q9Y5Y9)	158
C[C@@H]1C(=O)NCCN1C(=O)NC(c1ccc(Cl)c(C(F)(F)F)n1)C1CC(C(F)(F)F)C1 (single isomer, unassigned) [Example 47C]	human NaV1.8 (Homo sapiens, UniProt Q9Y5Y9)	2.66
C[C@@H]1C(=O)NCCN1C(=O)NC(c1ccc(F)c(Cl)c1)C1CC2CCC(C1)C2(F)F (single isomer, unassigned) [Example 3B]	human NaV1.8 (Homo sapiens, UniProt Q9Y5Y9)	148
C[C@@H]1C(=O)NCCN1C(=O)NC(c1ccc(F)c(Cl)c1F)C1CC(OC(F)F)C1 (single isomer, unassigned) [Example 39C]	human NaV1.8 (Homo sapiens, UniProt Q9Y5Y9)	48.5
C[C@@H]1C(=O)NCCN1C(=O)NC(c1ccc(F)c(Cl)c1F)C1COc2ccccc2C1 (single isomer, unassigned) [Example 62B]	human NaV1.8 (Homo sapiens, UniProt Q9Y5Y9)	358

###

Target: human NaV1.8 (Homo sapiens, UniProt Q9Y5Y9)
Test: Nav1.8 Qube® Assay (automated 384-well patch-clamp, inhibition of sodium current)
Settings: human NaV1.8 channels stably expressed in HEK 293 cells, room temperature
measure: log10 of IC50 (log10 of the value in nM)

compound	measure	endpoint_result
C[C@@H]1C(=O)NCCN1C(=O)N[C@H](c1ccc(F)c(Cl)c1)C1CCC(C(F)(F)F)CC1 (single isomer, unassigned) [Example 5B]	log10 of IC50	0.62
Cc1cc(C(NC(=O)N2CCNC(=O)[C@H]2C)C2CCC(C(F)(F)F)CC2)ccc1F (single isomer, unassigned) [Example 36B]	log10 of IC50	1.87
C[C@@H]1C(=O)NCCN1C(=O)NC(c1ccc(F)c(Cl)c1F)C1CC(OC(F)F)C1 (single isomer, unassigned) [Example 39A]	log10 of IC50	2.91
C[C@@H]1C(=O)NCCN1C(=O)NC(c1ccc(F)c(Cl)c1F)C1CCC(C(F)(F)F)C1 (single isomer, unassigned) [Example 58C]	log10 of IC50	0.71
C[C@@H]1C(=O)NCCN1C(=O)NC(c1ccc(F)c(F)c1)[C@H]1CC[C@H](C(F)(F)F)CC1 (single isomer, unassigned) [Example 8A]	log10 of IC50	2.39
C[C@@H]1C(=O)NCCN1C(=O)NC(c1ccc(Cl)c(C(F)(F)F)n1)C1CCC(F)(F)CC1 (single isomer, unassigned) [Example 46A]	log10 of IC50	2.54
C=C1CC(C(NC(=O)N2CCNC(=O)[C@H]2C)c2ccc(F)c(Cl)c2F)C1 (single isomer, unassigned) [Example 25B]	log10 of IC50	2.81
C[C@@H]1C(=O)NCCN1C(=O)NC(c1ccc(F)c(Cl)c1F)C1CC(OC(F)F)C1 (single isomer, unassigned) [Example 39B]	log10 of IC50	2.96
C[C@@H]1C(=O)NCCN1C(=O)NC(c1ccc(OC(F)(F)F)c(F)c1)[C@H]1C[C@H](C(F)(F)F)C1 (single isomer, unassigned) [Example 49B]	log10 of IC50	1.93
C[C@@H]1C(=O)NCCN1C(=O)NC(c1ccc(F)c(Cl)c1F)C1CC12CC2 (single isomer, unassigned) [Example 41D]	log10 of IC50	3.03
CC(N1CCC(C(NC(=O)N2CCNC(=O)[C@H]2C)c2ccc(F)c(Cl)c2)CC1)C(F)(F)F (single isomer, unassigned) [Example 18C]	log10 of IC50	1.96
C[C@@H]1C(=O)NCCN1C(=O)NC(c1ccc(F)c(Cl)c1)C1CC(C(F)(F)F)C1 (single isomer, unassigned) [Example 43D]	log10 of IC50	1.34
